Catalogue of IC50 readings, one per entry.
# TARGET_UNDER_TEST: Carbonic anhydrase 9 (Homo sapiens, UniProt Q16790)
# ASSAY_INFO: Inhibition of human recombinant CA9 using 4-nitrophenylacetate as substrate preincubated for 15 mins by stopped-flow CO2 hydration assay

QUERY_SMILES: O=c1oc2ccccc2c(Cl)c1/C=N/c1ccc(S(=O)(=O)Nc2nccs2)cc1
TARGET_UNDER_TEST: Carbonic anhydrase 9 (Homo sapiens, UniProt Q16790)
IC50 (nM): 138
//
QUERY_SMILES: N=C(N)NS(=O)(=O)c1ccc(/N=C/c2c(Cl)c3ccccc3oc2=O)cc1
TARGET_UNDER_TEST: Carbonic anhydrase 9 (Homo sapiens, UniProt Q16790)
IC50 (nM): 188
//
QUERY_SMILES: Cc1ccnc(NS(=O)(=O)c2ccc(/N=C/c3c(Cl)c4ccccc4oc3=O)cc2)n1
TARGET_UNDER_TEST: Carbonic anhydrase 9 (Homo sapiens, UniProt Q16790)
IC50 (nM): 84
//
QUERY_SMILES: Cc1ccc2oc(=O)c(/C=N/c3ccc(S(=O)(=O)Nc4nc(C)cc(C)n4)cc3)c(Cl)c2c1
TARGET_UNDER_TEST: Carbonic anhydrase 9 (Homo sapiens, UniProt Q16790)
IC50 (nM): 67
//
QUERY_SMILES: NS(=O)(=O)c1ccc(/N=C/c2c(Cl)c3ccccc3oc2=O)cc1
TARGET_UNDER_TEST: Carbonic anhydrase 9 (Homo sapiens, UniProt Q16790)
IC50 (nM): 91
//
QUERY_SMILES: Cc1ccc2oc(=O)c(/C=N/c3ccc(S(=O)(=O)NC(=N)N)cc3)c(Cl)c2c1
TARGET_UNDER_TEST: Carbonic anhydrase 9 (Homo sapiens, UniProt Q16790)
IC50 (nM): 50
//
QUERY_SMILES: Cc1ccc2oc(=O)c(/C=N/c3ccc(S(=O)(=O)Nc4nccs4)cc3)c(Cl)c2c1
TARGET_UNDER_TEST: Carbonic anhydrase 9 (Homo sapiens, UniProt Q16790)
IC50 (nM): 87
//
QUERY_SMILES: Cc1cc(NS(=O)(=O)c2ccc(/N=C/c3c(Cl)c4ccccc4oc3=O)cc2)no1
TARGET_UNDER_TEST: Carbonic anhydrase 9 (Homo sapiens, UniProt Q16790)
IC50 (nM): 141
//
QUERY_SMILES: Cc1ccnc(NS(=O)(=O)c2ccc(/N=C/c3c(Cl)c4cc(C(C)(C)C)cc(C(C)(C)C)c4oc3=O)cc2)n1
TARGET_UNDER_TEST: Carbonic anhydrase 9 (Homo sapiens, UniProt Q16790)
IC50 (nM): 24

====

# TARGET_UNDER_TEST: Carbonic anhydrase 9 (Homo sapiens, UniProt Q16790)
# ASSAY_INFO: Inhibition of human recombinant CA9 using 4-nitrophenylacetate as substrate preincubated for 15 mins by stopped-flow CO2 hydration assay
pIC50: −log10 of the molar value.
Listing: pIC50 of selected compounds
READOUT_TYPE: pIC50

QUERY_SMILES: Cc1cc(NS(=O)(=O)c2ccc(/N=C/c3c(Cl)c4cc(C(C)(C)C)cc(C(C)(C)C)c4oc3=O)cc2)no1
NUMBER: 7.37
--
QUERY_SMILES: CC(C)(C)c1cc(C(C)(C)C)c2oc(=O)c(/C=N/c3ccc(S(=O)(=O)NC(=N)N)cc3)c(Cl)c2c1
NUMBER: 7.13
--
QUERY_SMILES: Cc1cc(C)nc(NS(=O)(=O)c2ccc(/N=C/c3c(Cl)c4ccccc4oc3=O)cc2)n1
NUMBER: 6.91
--
QUERY_SMILES: Cc1cc(C)nc(NS(=O)(=O)c2ccc(/N=C/c3c(Cl)c4cc(C(C)(C)C)cc(C(C)(C)C)c4oc3=O)cc2)n1
NUMBER: 7.05
--
QUERY_SMILES: Cc1ccc2oc(=O)c(/C=N/c3ccc(S(N)(=O)=O)cc3)c(Cl)c2c1
NUMBER: 7.07
--
QUERY_SMILES: Cc1ccc2oc(=O)c(/C=N/c3ccc(S(=O)(=O)Nc4cc(C)on4)cc3)c(Cl)c2c1
NUMBER: 7.28
--
QUERY_SMILES: CC(C)(C)c1cc(C(C)(C)C)c2oc(=O)c(/C=N/c3ccc(S(=O)(=O)Nc4nccs4)cc3)c(Cl)c2c1
NUMBER: 7.29
--
QUERY_SMILES: Cc1ccc2oc(=O)c(/C=N/c3ccc(S(=O)(=O)Nc4nccc(C)n4)cc3)c(Cl)c2c1
NUMBER: 7.32
--
QUERY_SMILES: CC(C)(C)c1cc(C(C)(C)C)c2oc(=O)c(/C=N/c3ccc(S(N)(=O)=O)cc3)c(Cl)c2c1
NUMBER: 7.47

====

# ASSAY_INFO: Cytotoxicity against human macrophages assessed as microscopically detectable alteration of normal cell morphology after 48 hrs […]
# Format: cell-based
# TEST_CONTEXT: macrophage
Attribute: MCC

QUERY_SMILES: N=C(N)NS(=O)(=O)c1ccc(/N=C/c2c(Cl)c3ccccc3oc2=O)cc1
UNIT_INFO: µmol
MCC: 0.62
//
QUERY_SMILES: Cc1ccnc(NS(=O)(=O)c2ccc(/N=C/c3c(Cl)c4cc(C(C)(C)C)cc(C(C)(C)C)c4oc3=O)cc2)n1
UNIT_INFO: µmol
MCC: 0.36
//
QUERY_SMILES: Cc1ccc2oc(=O)c(/C=N/c3ccc(S(N)(=O)=O)cc3)c(Cl)c2c1
UNIT_INFO: µmol
MCC: 1.2
//
QUERY_SMILES: Cc1ccc2oc(=O)c(/C=N/c3ccc(S(=O)(=O)Nc4nccc(C)n4)cc3)c(Cl)c2c1
UNIT_INFO: µmol
MCC: 0.56
//
QUERY_SMILES: Cc1cc(C)nc(NS(=O)(=O)c2ccc(/N=C/c3c(Cl)c4cc(C(C)(C)C)cc(C(C)(C)C)c4oc3=O)cc2)n1
UNIT_INFO: µmol
MCC: 0.73
//
QUERY_SMILES: CC(C)(C)c1cc(C(C)(C)C)c2oc(=O)c(/C=N/c3ccc(S(N)(=O)=O)cc3)c(Cl)c2c1
UNIT_INFO: µmol
MCC: 0.58
//
QUERY_SMILES: Cc1cc(NS(=O)(=O)c2ccc(/N=C/c3c(Cl)c4ccccc4oc3=O)cc2)no1
UNIT_INFO: µmol
MCC: 0.42
//
QUERY_SMILES: NS(=O)(=O)c1ccc(/N=C/c2c(Cl)c3ccccc3oc2=O)cc1
UNIT_INFO: µmol
MCC: 0.58
